Target: ERα (Homo sapiens, UniProt P03372)
Sequence (P03372 1-595): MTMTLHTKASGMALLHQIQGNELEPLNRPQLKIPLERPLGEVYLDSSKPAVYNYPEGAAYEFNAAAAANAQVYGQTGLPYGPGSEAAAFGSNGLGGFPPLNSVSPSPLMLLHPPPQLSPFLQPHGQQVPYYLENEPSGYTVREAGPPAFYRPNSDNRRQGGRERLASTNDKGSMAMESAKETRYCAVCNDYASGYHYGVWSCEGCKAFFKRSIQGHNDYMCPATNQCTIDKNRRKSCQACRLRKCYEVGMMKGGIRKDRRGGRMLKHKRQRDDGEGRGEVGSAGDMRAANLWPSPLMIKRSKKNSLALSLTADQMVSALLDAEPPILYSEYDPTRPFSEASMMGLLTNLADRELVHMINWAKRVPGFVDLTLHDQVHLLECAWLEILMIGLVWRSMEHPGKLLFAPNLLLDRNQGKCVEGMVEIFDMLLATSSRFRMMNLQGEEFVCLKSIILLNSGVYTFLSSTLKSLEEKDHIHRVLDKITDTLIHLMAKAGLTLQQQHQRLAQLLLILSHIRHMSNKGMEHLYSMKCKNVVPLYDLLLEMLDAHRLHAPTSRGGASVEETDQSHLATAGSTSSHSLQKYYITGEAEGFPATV
Experiment: Fluorescence polarization competition assay: antagonistic potency and relative binding affinity
Exercise: for every item that follows, state its recorded pIC50.
Give bare numbers, as −log10 of the molar value.

Answered examples (2):
CC(=O)c1cc(C(=O)O[C@@H]2/C=C/C(=O)O[C@@H](O)CCC/C=C/[C@@H]3C[C@H](O)C[C@H]32)ccc1OCCN1CCCCC1: 9.11
CC(=O)c1cc(C(=O)O[C@@H]2/C=C/C(=O)O[C@@H](O)CCC/C=C/[C@@H]3C[C@H](O)C[C@H]32)ccc1OCCN1Cc2cccnc2C1: 9.08

Okay, now this compound:
Sample `CC(=O)c1cc(C(=O)O[C@@H]2/C=C/C(=O)O[C@@H](O)CCC/C=C/[C@@H]3C[C@H](O)C[C@H]32)ccc1OCCN1CCCC1` , system: ERα (Homo sapiens, UniProt P03372). Its pIC50 is 9.15
